Can you tell me pest or weed control at 560 g/ha for the items I'm about to list?
Test system: Ambrosia artemisiifolia (AMBEL), common ragweed
assayInfo: Postemergence herbicide evaluation, growth of Ambrosia artemisiifolia (AMBEL)
Assay type: in vivo
conditionLabel: Ambrosia artemisiifolia, post-emergence, 168 h, 560 g ae/ha, 7 DAA, percent reduction in plant size relative to untreated control; read-out: AVE. AMBEL

• O=C(COc1ccc(Cl)cc1Cl)ON(Cc1ccccc1)Cc1ccccc1 = 40%

Provide pest or weed control at 560 g/ha for all items below, preserving their order.
1. Cc1cc(OC(=O)COc2ccc(Cl)cc2Cl)n(C)n1
2. O=C(Cc1ccccc1)NOC(=O)COc1ccc(Cl)cc1Cl

["73%", "70%"]
